- System: CCRF-CEM
- MEASUREMENT DESCRIPTION: MTS cytotoxicity assay, CCRF-CEM
- ASSAY CONDITIONS: Homo sapiens, 24 h
The compounds listed here are annotated with their IC50.
Expressed in µM, but write only the number.

CN(C)CCNc1ccc(NCCN(C)C)c2c1C(=O)c1c(O)ccc(O)c1C2=O    0.62

Now consider the entry below.
Form: compound = CCC1=C[C@@H]2CN(C1)Cc1c([nH]c3ccccc13)[C@@](C(=O)OC)(c1cc3c(cc1OC)N(C)[C@H]1[C@@](O)(C(=O)OC)[C@H](OC(C)=O)[C@]4(CC)C=CCN5CC[C@]31[C@@H]54)C2 [VLB, vinorelbine, reference compound] ; IC50 = 0.01
